# System: cryopreserved hepatocytes
# test.name: Human hepatic stability in cryopreserved hepatocytes
# condition: 1×10^6 cells/mL, aliquots at 0, 1, 3 and 6 hours, LC-MS/MS
assay.endpoint: Predicted Clearance
Be sure to follow the number with its unit.

Worked examples follow.
| compound | Predicted Clearance |
| --- | --- |
| Cc1c(-c2[nH]c3sc([C@@H]4C[C@@H]5C[C@H]4CN5Cc4cn(C)nn4)c(C)c3c2C(C)C)cn2ncnc2c1C | 4.33 mL/min/kg |
| Cc1c(-c2[nH]c3ccc(C4CCN(CC(N)=O)CC4)cc3c2C(C)C)cn2ncnc2c1C [Example A-1, reference compound] | 4.5 mL/min/kg |
| COc1cc(-c2[nH]c3cc(C4CCNCC4)sc3c2C(C)C)cn2ncnc12 [Example B-1, reference compound] | 4.33 mL/min/kg |
| Cc1c(-c2[nH]c3sc([C@@H]4C[C@@H]5C[C@H]4CN5CCO)c(C)c3c2C(C)C)cn2ncnc2c1C | 3.67 mL/min/kg |
| Cc1c(-c2[nH]c3sc(C4CCN(CC(N)=O)CC4)cc3c2C(C)C)cn2ncnc2c1C | 2.67 mL/min/kg |

Tested system cryopreserved hepatocytes; Predicted Clearance recorded for Cc1c(-c2[nH]c3sc([C@H]4C[C@H]5C[C@@H]4CN5CC(N)=O)c(C)c3c2C(C)C)cn2ncnc2c1C was 8.83 mL/min/kg

Tested system cryopreserved hepatocytes; Predicted Clearance recorded for Cc1c(-c2[nH]c3sc([C@@H]4C[C@@H]5C[C@H]4CN5CC(N)=O)c(C)c3c2C(C)C)cn2ncnc2c1C was 4.33 mL/min/kg

* * *

# system: TLR8 (Homo sapiens (Human), UniProt Q9NR97)
# Sequence (Q9NR97 27-1041): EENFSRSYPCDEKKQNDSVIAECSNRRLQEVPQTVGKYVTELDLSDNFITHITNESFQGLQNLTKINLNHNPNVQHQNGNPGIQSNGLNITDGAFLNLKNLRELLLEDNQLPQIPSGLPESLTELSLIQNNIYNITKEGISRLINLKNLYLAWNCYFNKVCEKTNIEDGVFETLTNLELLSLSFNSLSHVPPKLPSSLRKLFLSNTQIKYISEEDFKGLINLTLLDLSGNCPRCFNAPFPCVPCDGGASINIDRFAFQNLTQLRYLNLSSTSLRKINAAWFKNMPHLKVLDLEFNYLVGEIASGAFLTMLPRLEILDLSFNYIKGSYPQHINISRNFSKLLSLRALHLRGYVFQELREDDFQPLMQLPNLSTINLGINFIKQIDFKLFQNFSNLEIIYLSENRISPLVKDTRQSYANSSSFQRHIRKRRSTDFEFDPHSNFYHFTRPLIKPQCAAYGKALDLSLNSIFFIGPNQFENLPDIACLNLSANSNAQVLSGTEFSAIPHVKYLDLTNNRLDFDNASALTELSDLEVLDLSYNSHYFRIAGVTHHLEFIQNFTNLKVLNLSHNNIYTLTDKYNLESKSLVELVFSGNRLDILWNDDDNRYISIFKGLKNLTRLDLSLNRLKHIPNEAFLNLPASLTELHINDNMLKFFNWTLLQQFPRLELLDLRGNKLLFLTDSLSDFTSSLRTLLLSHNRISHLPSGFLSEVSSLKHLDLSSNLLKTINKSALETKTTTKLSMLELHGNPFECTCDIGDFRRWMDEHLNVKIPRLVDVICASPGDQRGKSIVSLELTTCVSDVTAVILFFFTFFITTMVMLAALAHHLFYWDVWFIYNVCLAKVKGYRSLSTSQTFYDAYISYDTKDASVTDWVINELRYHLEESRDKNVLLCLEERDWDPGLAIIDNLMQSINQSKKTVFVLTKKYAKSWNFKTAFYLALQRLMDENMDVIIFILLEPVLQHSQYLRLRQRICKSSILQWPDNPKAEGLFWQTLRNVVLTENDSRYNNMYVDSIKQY
# test.name: TLR8 human peripheral blood mononuclear cell (PBMC) cell-based assay (Compound A as agonist; TNFα and IL12p40 readout)
# condition: human PBMCs, TLR8 agonist Compound A at 800 nM, 6 hours, antagonist potency; read-out: TLR-8 EC50
assay.endpoint: EC50 (nM)
Provide only the numeric value, understood in nM.

| molecule | unit.name | measurement |
| --- | --- | --- |
| Cc1c(C2CCN(C(=O)[C@H]3C[C@@H](F)CN3)CC2)sc2[nH]c(-c3cc(C)c4ncnn4c3)c(C(C)C)c12 [Example 42] | nM | 25.7 |
| Cc1c(-c2[nH]c3sc(C4C[C@@H]5C[C@H]4CC5N4CC5(C4)CS(=O)(=O)C5)c(C)c3c2C(C)C)cn2ncnc2c1C (stereo partly shown) [Example 254] | nM | 3.64 |
| CCc1c(C2CCN(C(=O)[C@H]3COCCN3)CC2)sc2[nH]c(-c3cc(C)c4ncnn4c3)c(C(C)C)c12 [Example 208] | nM | 34.6 |
| Cc1cc(-c2[nH]c3sc(C(=O)N4CCNCC4)cc3c2C(C)C)cn2ncnc12 [Example 2] | nM | 5.79 |
| Cc1c(-c2[nH]c3sc([C@@H]4C[C@@H]5C[C@H]4CN5CCS(N)(=O)=O)c(C)c3c2C(C)C)cn2ncnc2c1C [Example 180] | nM | 0.17 |

Given item Cc1c(C2CCN(S(=O)(=O)N3CCNCC3)CC2)sc2[nH]c(-c3cc(C)c4ncnn4c3)c(C(C)C)c12 [Example 156] , the value recorded as its EC50 is 9.8

Given item Cc1c(-c2[nH]c3sc([C@@H]4C[C@@H]5C[C@H]4CN5CC(=O)OC(C)(C)C)c(C)c3c2C(C)C)cn2ncnc2c1C [Example 179] , the value recorded as its EC50 is 3.53

* * *

# system: TLR7 (Homo sapiens (Human))
# test.name: TLR7 human peripheral blood mononuclear cell (PBMC) cell-based assay (GS-986 as agonist; IL-6 and IFNα readout)
# condition: human PBMCs, TLR7 agonist GS-986 at 400 nM, 6 hours, antagonist potency; read-out: TLR-7 EC50
# EC50 values compiled below

| compound.structure | EC50 |
| --- | --- |
| Cc1c(-c2[nH]c3sc(-c4cnc(C5CCN(CC(N)=O)CC5)nc4)c(C)c3c2C(C)C)cn2ncnc2c1C | 4.14 nM |
| Cc1c(-c2[nH]c3sc([C@@H]4C[C@@H]5C[C@H]4CN5CC(=O)N4CC(O)C4)c(C)c3c2C(C)C)cn2ncnc2c1C | 0.97 nM |

Given item Cc1c(-c2[nH]c3sc([C@@H]4C[C@@H]5C[C@H]4CN5CCS(C)(=O)=O)c(C)c3c2C(C)C)cn2ncnc2c1C , the value recorded as its EC50 is 0.45 nM

* * *

# pEC50 values compiled below
# system: TLR8 (Homo sapiens (Human))
# test.name: TLR8 human peripheral blood mononuclear cell (PBMC) cell-based assay (Compound A as agonist; TNFα and IL12p40 readout)
# condition: human PBMCs, TLR8 agonist Compound A at 800 nM, 6 hours, antagonist potency; read-out: TLR-8 EC50
For clarity, pEC50 is expressed as the negative log10 of concentration in mol/L.

Worked examples follow.
| compound | measurement |
| --- | --- |
| Cc1c(C2CCN(C(=O)N3CCNCC3)CC2)sc2[nH]c(-c3cc(C)c4ncnn4c3)c(C(C)C)c12 [Example 32] | 8.08 |
| Cc1c(-c2[nH]c3sc([C@@H]4C[C@@H]5C[C@H]4CN5C(=O)[C@H]4C[C@@H](F)CN4)c(C)c3c2C(C)C)cn2ncnc2c1C [Example 147] | 7.79 |
| Cc1c(-c2[nH]c3sc(C4CCN(CC(N)=O)CC4)cc3c2C(C)C)cn2ncnc2c1C [Example 221] | 8.49 |

Given item Cc1c(-c2[nH]c3sc(C4CCC(N5CC(C)(O)C5)CC4)c(C)c3c2C(C)C)cn2ncnc2c1C (stereo not shown) [Example 304] , the value recorded as its pEC50 is 8.75

* * *

# IC50 values compiled below
# system: MATE2-K (multidrug and toxin extrusion protein 2) (Homo sapiens (Human))
# Sequence (Q86VL8 other isoform, or with tags, fused parts or gaps, species assumed): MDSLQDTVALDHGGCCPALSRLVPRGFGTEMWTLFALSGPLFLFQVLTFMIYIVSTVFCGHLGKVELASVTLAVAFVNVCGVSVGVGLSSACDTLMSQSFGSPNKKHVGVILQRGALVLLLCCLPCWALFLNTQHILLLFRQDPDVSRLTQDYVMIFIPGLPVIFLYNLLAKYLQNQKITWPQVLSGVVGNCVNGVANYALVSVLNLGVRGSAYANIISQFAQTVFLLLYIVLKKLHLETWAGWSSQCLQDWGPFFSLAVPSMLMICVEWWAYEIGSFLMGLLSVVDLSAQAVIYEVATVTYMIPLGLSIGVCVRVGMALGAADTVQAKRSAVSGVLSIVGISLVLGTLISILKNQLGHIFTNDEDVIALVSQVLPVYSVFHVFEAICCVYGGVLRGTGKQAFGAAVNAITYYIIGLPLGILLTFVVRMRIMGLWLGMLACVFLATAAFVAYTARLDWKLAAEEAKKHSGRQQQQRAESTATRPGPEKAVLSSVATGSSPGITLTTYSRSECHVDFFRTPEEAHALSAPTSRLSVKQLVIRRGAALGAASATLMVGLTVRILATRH
# test.name: MATE2-K IC50 assay (14C-metformin uptake in transfected MDCK-II cells)
# Type: in vitro ADME
Provide only the numeric value, understood in µM.

Given item Cc1c(-c2[nH]c3sc([C@@H]4C[C@@H]5C[C@H]4CN5CC(N)=O)c(C)c3c2C(C)C)cn2ncnc2c1C [Example 79] , the value recorded as its IC50 is 8.1

Given item Cc1c(-c2[nH]c3sc([C@@H]4C[C@H]5CC[C@@H](C4)N5CC(N)=O)c(C)c3c2C(C)C)cn2ncnc2c1C [Example 91] , the value recorded as its IC50 is 7.8

Given item Cc1c(-c2[nH]c3sc(C4CCN(CC(N)=O)CC4)c(C)c3c2C(C)C)cn2ncnc2c1C [Example 67] , the value recorded as its IC50 is 6.2

Given item COc1cc(-c2[nH]c3cc(C4CCNCC4)sc3c2C(C)C)cn2ncnc12 [Example B-1, reference compound] , the value recorded as its IC50 is 1.1

* * *

# system: TLR7 (Homo sapiens (Human), UniProt Q9NYK1)
# Sequence (Q9NYK1 27-1049): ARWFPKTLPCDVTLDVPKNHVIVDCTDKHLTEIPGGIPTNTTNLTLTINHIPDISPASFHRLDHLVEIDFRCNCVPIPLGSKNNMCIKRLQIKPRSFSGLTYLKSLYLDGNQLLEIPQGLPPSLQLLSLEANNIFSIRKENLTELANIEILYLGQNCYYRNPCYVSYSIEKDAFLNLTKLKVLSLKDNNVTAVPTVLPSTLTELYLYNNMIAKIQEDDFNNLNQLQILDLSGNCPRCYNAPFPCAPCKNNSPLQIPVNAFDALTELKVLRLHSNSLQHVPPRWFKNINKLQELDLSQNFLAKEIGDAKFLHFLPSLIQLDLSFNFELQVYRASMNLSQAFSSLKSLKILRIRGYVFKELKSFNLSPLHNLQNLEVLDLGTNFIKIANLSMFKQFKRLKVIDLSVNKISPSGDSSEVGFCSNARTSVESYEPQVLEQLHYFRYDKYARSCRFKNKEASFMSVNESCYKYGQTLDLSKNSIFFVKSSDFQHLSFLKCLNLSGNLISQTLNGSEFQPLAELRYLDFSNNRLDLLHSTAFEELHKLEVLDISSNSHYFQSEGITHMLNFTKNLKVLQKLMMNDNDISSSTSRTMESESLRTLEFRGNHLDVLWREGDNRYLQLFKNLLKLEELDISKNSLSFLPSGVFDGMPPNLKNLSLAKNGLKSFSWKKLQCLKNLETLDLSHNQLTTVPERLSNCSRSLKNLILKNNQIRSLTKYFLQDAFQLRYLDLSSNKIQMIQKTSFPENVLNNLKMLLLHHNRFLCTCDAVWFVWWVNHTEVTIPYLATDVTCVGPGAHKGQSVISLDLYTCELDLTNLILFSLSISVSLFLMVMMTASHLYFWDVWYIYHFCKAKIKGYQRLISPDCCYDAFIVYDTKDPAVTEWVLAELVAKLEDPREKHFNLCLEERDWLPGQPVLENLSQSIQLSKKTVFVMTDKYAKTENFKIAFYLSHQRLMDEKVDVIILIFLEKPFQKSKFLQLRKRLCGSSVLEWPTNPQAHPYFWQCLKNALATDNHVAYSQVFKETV
# test.name: TLR7 human peripheral blood mononuclear cell (PBMC) cell-based assay (GS-986 as agonist; IL-6 and IFNα readout)
# condition: human PBMCs, TLR7 agonist GS-986 at 400 nM, 6 hours, antagonist potency; read-out: TLR-7 EC50
assay.endpoint: pEC50
For clarity, pEC50 is expressed as the negative log10 of concentration in mol/L.

Worked examples follow.
| compound | assay.endpoint | measurement |
| --- | --- | --- |
| Cc1c(C2C3CCC2CN(CC(N)=O)C3)sc2[nH]c(-c3cc(C)c4ncnn4c3)c(C(C)C)c12 (stereo not shown) | pEC50 | 9.59 |
| Cc1cc(-c2[nH]c3sc([C@H]4C[C@@]5(CCNC5)C4)c(C)c3c2C(C)C)cn2ncnc12 | pEC50 | 9.48 |
| Cc1c(C2CC3(CCNCC3)C2)sc2[nH]c(-c3cc(C)c4ncnn4c3)c(C(C)C)c12 | pEC50 | 9.80 |

Given item Cc1c(-c2[nH]c3sc([C@@H]4C[C@@H]5C[C@H]4CN5Cc4cc[nH]c(=O)c4)c(C)c3c2C(C)C)cn2ncnc2c1C , the value recorded as its pEC50 is 9.30

Given item Cc1c(-c2[nH]c3sc([C@H]4C[C@H]5C[C@@H]4CN5)c(C)c3c2C(C)C)cn2ncnc2c1C , the value recorded as its pEC50 is 10.30

Given item Cc1c(C2CCNCC2)sc2[nH]c(-c3cc(C)c4ncnn4c3)c(C(C)C)c12 , the value recorded as its pEC50 is 10.10

* * *

# system: TLR8 (Homo sapiens (Human))
# test.name: TLR8 human peripheral blood mononuclear cell (PBMC) cell-based assay (Compound A as agonist; TNFα and IL12p40 readout)
# condition: human PBMCs, TLR8 agonist Compound A at 800 nM, 6 hours, antagonist potency; read-out: TLR-8 EC50
assay.endpoint: pEC50
For clarity, pEC50 is expressed as the negative log10 of concentration in mol/L.

Worked examples follow.
| molecule | system | assay.endpoint | measurement |
| --- | --- | --- | --- |
| Cc1c(-c2[nH]c3sc([C@@H]4C[C@@H]5C[C@H]4CN5CCS(=O)(=O)N(C)C)c(C)c3c2C(C)C)cn2ncnc2c1C | TLR8 (Homo sapiens (Human)) | pEC50 | 8.91 |
| Cc1nc2c(C)cc(-c3[nH]c4sc(C5CCNCC5)c(C)c4c3C(C)C)cn2n1 | TLR8 (Homo sapiens (Human)) | pEC50 | 8.16 |
| Cc1c(-c2[nH]c3sc([C@@H]4C[C@@H]5C[C@H]4CN5C4CCS(=O)(=O)CC4)c(C)c3c2C(C)C)cn2ncnc2c1C | TLR8 (Homo sapiens (Human)) | pEC50 | 9.02 |

Let's switch to this molecule now.
Given item Cc1c(-c2[nH]c3sc(C4CCN(C(=O)[C@@H]5COCCN5)CC4)c(C)c3c2C(C)C)cn2ncnc2c1C , the value recorded as its pEC50 is 8.57
